- TARGET ENTITY: H1047R PIK3CA enzyme (Homo sapiens, UniProt P42336, H1047R)
- Sequence (P42336 whole entry H1047R): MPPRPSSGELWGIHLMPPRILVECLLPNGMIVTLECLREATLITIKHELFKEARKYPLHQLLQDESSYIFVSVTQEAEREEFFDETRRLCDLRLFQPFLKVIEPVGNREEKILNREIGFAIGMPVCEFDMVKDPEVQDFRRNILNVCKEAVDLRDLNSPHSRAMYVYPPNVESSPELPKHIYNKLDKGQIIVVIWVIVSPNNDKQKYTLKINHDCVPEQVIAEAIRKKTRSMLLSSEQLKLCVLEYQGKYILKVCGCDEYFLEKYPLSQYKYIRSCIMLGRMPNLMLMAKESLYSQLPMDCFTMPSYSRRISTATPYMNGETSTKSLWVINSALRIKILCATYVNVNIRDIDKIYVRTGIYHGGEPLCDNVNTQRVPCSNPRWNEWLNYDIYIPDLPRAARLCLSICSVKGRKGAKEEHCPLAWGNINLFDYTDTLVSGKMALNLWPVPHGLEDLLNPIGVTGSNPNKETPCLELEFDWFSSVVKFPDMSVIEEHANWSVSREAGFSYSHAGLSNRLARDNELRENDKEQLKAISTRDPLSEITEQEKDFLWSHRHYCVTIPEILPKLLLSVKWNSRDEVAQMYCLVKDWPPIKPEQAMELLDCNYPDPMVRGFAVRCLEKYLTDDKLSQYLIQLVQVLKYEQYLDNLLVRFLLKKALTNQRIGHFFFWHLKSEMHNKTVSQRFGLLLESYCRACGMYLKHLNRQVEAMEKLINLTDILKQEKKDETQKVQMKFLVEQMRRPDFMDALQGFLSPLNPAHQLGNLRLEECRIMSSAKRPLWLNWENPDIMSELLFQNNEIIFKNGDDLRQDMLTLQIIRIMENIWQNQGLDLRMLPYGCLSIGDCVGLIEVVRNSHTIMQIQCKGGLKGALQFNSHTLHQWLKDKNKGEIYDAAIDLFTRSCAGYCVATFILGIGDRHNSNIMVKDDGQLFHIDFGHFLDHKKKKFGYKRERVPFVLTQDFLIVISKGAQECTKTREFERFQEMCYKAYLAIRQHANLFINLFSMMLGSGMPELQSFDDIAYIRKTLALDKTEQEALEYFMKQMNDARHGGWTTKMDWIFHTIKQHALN
- Sequence (P27986 whole entry partner): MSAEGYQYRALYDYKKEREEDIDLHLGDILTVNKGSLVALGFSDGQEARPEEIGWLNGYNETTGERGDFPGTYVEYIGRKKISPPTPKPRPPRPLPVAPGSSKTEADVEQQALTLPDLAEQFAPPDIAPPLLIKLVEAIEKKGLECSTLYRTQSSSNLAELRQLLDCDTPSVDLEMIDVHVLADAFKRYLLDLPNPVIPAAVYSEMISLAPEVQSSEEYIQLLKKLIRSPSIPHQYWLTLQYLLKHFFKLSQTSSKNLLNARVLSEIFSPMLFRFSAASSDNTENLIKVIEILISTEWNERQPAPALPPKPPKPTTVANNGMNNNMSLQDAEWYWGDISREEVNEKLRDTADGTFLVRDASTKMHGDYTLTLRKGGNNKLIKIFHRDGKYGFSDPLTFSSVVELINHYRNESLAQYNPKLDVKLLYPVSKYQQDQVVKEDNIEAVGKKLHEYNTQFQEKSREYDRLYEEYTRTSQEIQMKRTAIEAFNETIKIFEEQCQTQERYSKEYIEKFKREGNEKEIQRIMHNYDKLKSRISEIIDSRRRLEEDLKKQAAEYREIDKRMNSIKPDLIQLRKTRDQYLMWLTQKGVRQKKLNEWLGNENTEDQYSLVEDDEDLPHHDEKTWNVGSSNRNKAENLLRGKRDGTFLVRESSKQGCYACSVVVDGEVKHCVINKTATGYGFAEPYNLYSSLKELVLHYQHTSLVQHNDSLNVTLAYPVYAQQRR
- PROTOCOL NOTES: ADP-Glo Biochemical PIK3CA Kinase Assay
Can you tell me IC50 for the items I'm about to list?

These solved cases illustrate the format of a correct answer.
COMPOUND	TARGET ENTITY	MEASURED ATTRIBUTE	RECORDED RESULT
O=C1NC(c2cc(F)ccc2Cl)c2c(NC(=O)N3CCNc4ccccc43)cc(Br)cc21 (stereo not shown)	H1047R PIK3CA enzyme (Homo sapiens, UniProt P42336, H1047R)	IC50	1 to 10 µM
O=C(Nc1cc(-c2ccc3ncc(C(F)F)n3c2)cc2c1C(c1cc(F)ccc1Cl)NC2=O)c1cc(F)cc(C(F)(F)F)c1 (stereo not shown)	H1047R PIK3CA enzyme (Homo sapiens, UniProt P42336, H1047R)	IC50	≤ 0.1 µM
COc1ccccc1-c1cc(NC(=O)c2cc(F)cc(C(F)(F)F)c2)c2c(c1)C(=O)NC2c1cc(F)ccc1Cl (stereo not shown)	H1047R PIK3CA enzyme (Homo sapiens, UniProt P42336, H1047R)	IC50	0.1 to 0.5 µM
O=C1N[C@@H](c2cc(F)ccc2Cl)c2c(NC(=O)[C@H]3CCCNC3)cc(-c3ccc4ncnn4c3)cc21 (racemic)	H1047R PIK3CA enzyme (Homo sapiens, UniProt P42336, H1047R)	IC50	10 to 100 µM
O=C1NC(c2cc(F)ccc2Cl)c2c(NC(=O)N3CCCC3)cc(Br)cc21 (stereo not shown)	H1047R PIK3CA enzyme (Homo sapiens, UniProt P42336, H1047R)	IC50	10 to 100 µM

Record IC50 per entry; entries follow.
1. O=C1N[C@@H](c2cc(F)ccc2Cl)c2c(NC(=O)N3C[C@@H](O)c4cc(F)ccc43)cc(-n3cccn3)cc21 (single isomer, unassigned)
2. O=C1NC(c2cc(F)ccc2Cl)c2c(NC(=O)N3CCc4ccccc4C3)cccc21 (stereo not shown)
3. O=C1N[C@H](c2cc(F)ccc2Cl)c2c(NC(=O)N3C[C@@](O)(C(F)(F)F)c4cc(F)ccc43)cc(-n3nccn3)cc21 (single isomer, unassigned)
4. COc1nc(-c2cc(NC(=O)c3cc(F)cc(C(F)(F)F)c3)c3c(c2)C(=O)NC3c2cc(F)ccc2Cl)cs1 (stereo not shown)
5. [2H]C1(c2ccccc2C)NC(=O)c2cccc(NC(=O)c3csc4ccccc34)c21 (stereo not shown)
6. N#Cc1ncccc1-c1cc(NC(=O)c2cc(F)cc(C(F)(F)F)c2)c2c(c1)C(=O)NC2c1cc(F)ccc1Cl (stereo not shown)
7. N#Cc1cnn2ccc(-c3cc(NC(=O)c4cc(F)cc(C(F)(F)F)c4)c4c(c3)C(=O)N[C@H]4c3cc(F)ccc3Cl)cc12

1 to 10 µM
10 to 100 µM
≤ 0.1 µM
≤ 0.1 µM
≤ 0.1 µM
≤ 0.1 µM
≤ 0.1 µM

Name the reported IC50 value associated with the compound CC(C)(O)c1cc(NC(=O)c2cc(F)cc(C(F)(F)F)c2)c2c(c1)C(=O)NC2c1ccccc1C(F)F (stereo not shown) ≤ 0.1 µM

* * *

Provide the recorded IC50 for the entries that follow.
- TARGET ENTITY: H1047R PIK3CA enzyme (Homo sapiens, UniProt P42336, H1047R)
- PROTOCOL NOTES: ADP-Glo Biochemical PIK3CA Kinase Assay

Sample records with IC50:
COMPOUND	TARGET ENTITY	IC50
O=C(Nc1cc(OC2COC2)cc2c1C(c1cc(F)ccc1Cl)NC2=O)c1cc(F)cc(C(F)(F)F)c1 (centres unmarked)	H1047R PIK3CA enzyme (Homo sapiens, UniProt P42336, H1047R)	≤ 100 nM
O=C1COCc2cc(-c3cc(NC(=O)c4cc(F)cc(C(F)(F)F)c4)c4c(c3)C(=O)NC4c3cc(F)ccc3Cl)ccc2N1 (centres unmarked)	H1047R PIK3CA enzyme (Homo sapiens, UniProt P42336, H1047R)	≤ 100 nM
Cc1ccccc1C1NC(=O)c2c(C(=O)N3CC(C#N)C3)ccc(NC(=O)c3nsc4ccccc34)c21 (centres unmarked)	H1047R PIK3CA enzyme (Homo sapiens, UniProt P42336, H1047R)	500 to 1000 nM
O=C(Nc1cc(N2CC(F)(F)C2)nc2c1[C@@H](c1cc(F)ccc1Cl)NC2=O)c1cc(F)cc(C(F)(F)F)c1	H1047R PIK3CA enzyme (Homo sapiens, UniProt P42336, H1047R)	1000 to 10000 nM
O=C(Nc1cc(Br)cc2c1C(c1cc(F)ccc1Cl)NC2=O)c1ccc(OC(F)F)c(F)c1 (centres unmarked)	H1047R PIK3CA enzyme (Homo sapiens, UniProt P42336, H1047R)	1000 to 10000 nM
O=C1N[C@H](c2cc(F)ccc2Cl)c2c(NC(=O)N3C[C@](O)(C(F)F)c4cc(F)ccc43)cc(F)cc21 (single isomer, unassigned)	H1047R PIK3CA enzyme (Homo sapiens, UniProt P42336, H1047R)	1000 to 10000 nM
O=C1NC(c2cc(F)ccc2Cl)c2c1cccc2-c1cc2c(Cl)cc(F)cc2[nH]1 (centres unmarked)	H1047R PIK3CA enzyme (Homo sapiens, UniProt P42336, H1047R)	100 to 500 nM
O=C1NC(c2cc(F)ccc2Cl)c2c(NC(=O)C3COCCO3)cc(-c3ccc4ncnn4c3)cc21 (centres unmarked)	H1047R PIK3CA enzyme (Homo sapiens, UniProt P42336, H1047R)	10000 to 100000 nM

For each of the compounds below, note its IC50.
1. O=C1Cc2cc(NC(=O)c3cc(F)cc(C(F)(F)F)c3)ccc2C(c2ccccc2Cl)N1 (centres unmarked)
2. O=C(Nc1cc(-c2cn[nH]c2)nc2c1C(c1cc(F)ccc1Cl)NC2=O)c1cc(F)cc(C(F)(F)F)c1 (centres unmarked)
3. CC(C)(O)c1cc(NC(=O)c2nsc3ccccc23)c2c(c1)C(=O)NC2c1cc(F)ccc1Cl (centres unmarked)
4. Cn1ccc(Nc2cc(NC(=O)c3cc(F)cc(C(F)(F)F)c3)c3c(c2)C(=O)NC3c2cc(F)ccc2Cl)n1 (centres unmarked)
5. O=C1N[C@H](c2cc(F)ccc2Cl)c2c(NC(=O)N3CCOCC(F)(F)C3)cc(Br)cc21 (single isomer, unassigned)
6. CSc1cc(-c2ccc3ncnn3c2)cc2c1C(c1cc(F)ccc1Cl)NC2=O (centres unmarked)

["1000 to 10000 nM", "≤ 100 nM", "≤ 100 nM", "≤ 100 nM", "10000 to 100000 nM", "10000 to 100000 nM"]

* * *

So I've got a bunch of compounds here, and I need their IC50 values.
- TARGET ENTITY: H1047R PIK3CA enzyme (Homo sapiens, UniProt P42336, H1047R)
- PROTOCOL NOTES: ADP-Glo Biochemical PIK3CA Kinase Assay

COMPOUND	RECORDED RESULT
O=C1NC(c2cc(F)ccc2Cl)c2c1cc(-c1ccc3ncnn3c1)cc2N1CCNCC1 (stereo not shown) [Compound I-1908]	10000 to 100000 nM

Fill in IC50 for each of the 5 compounds listed.
1. O=C(Nc1cc(-c2ccc3c(c2)C(=O)NCCO3)cc2c1C(c1cc(F)ccc1Cl)NC2=O)c1cc(F)cc(C(F)(F)F)c1 (stereo not shown) [Compound I-1048]
2. Nc1nc2cc(-c3cc(NC(=O)c4cc(F)cc(C(F)(F)F)c4)c4c(c3)C(=O)NC4c3cc(F)ccc3Cl)ccn2n1 (stereo not shown) [Compound I-1370]
3. O=C(Nc1cc(Cl)nc2c1C(c1cc(F)ccc1Cl)NC2=O)c1cc(F)cc(C(F)(F)F)c1 (stereo not shown) [Compound I-545]
4. O=C1N[C@H](c2cc(F)ccc2Cl)c2c(NC(=O)N3C[C@@](O)(C(F)(F)F)c4cc(F)ccc43)cc(Cl)cc21 (single isomer, unassigned) [Compound I-2510]
5. C[C@]1(O)CN(C(=O)Nc2cccc3c2[C@H](c2cc(F)ccc2Cl)NC3=O)c2ccccc21 (single isomer, unassigned) [Compound I-2205]

1: ≤ 100 nM; 2: ≤ 100 nM; 3: ≤ 100 nM; 4: 1000 to 10000 nM; 5: ≤ 100 nM

Dear colleague, could you please provide IC50 for the compounds listed below?
1. COC1CCCC(C(=O)Nc2cc(-c3ccc4ncnn4c3)cc3c2C(c2cc(F)ccc2Cl)NC3=O)C1 (mixture of isomers) [Compound I-2037]
2. N#Cc1cc(-c2cc(NC(=O)c3cc(F)cc(C(F)(F)F)c3)c3c(c2)C(=O)NC3c2cc(F)ccc2Cl)cn2ncnc12 (stereo not shown) [Compound I-1822]

["10000 to 100000 nM", "≤ 100 nM"]

Value sought for every listed compound: IC50.
1. O=C1NC(c2cc(F)ccc2Cl)c2c(NC(=O)N3CCCC3C3CC3)cccc21 (stereo not shown) [Compound I-2408]
2. O=C(Nc1cc(Oc2ncncc2F)cc2c1C(c1cc(F)ccc1Cl)NC2=O)c1cc(F)cc(C(F)(F)F)c1 (stereo not shown) [Compound I-1246]
3. O=C(Nc1cc(-c2cnc3ncnn3c2)cc2c1[C@H](c1cc(F)ccc1Cl)NC2=O)c1cc(F)cc(C(F)(F)F)c1 [Compound I-1024]

1: 10000 to 100000 nM; 2: ≤ 100 nM; 3: ≤ 100 nM

Below is a list of compounds. For each, state its recorded IC50.
1. O=C(Nc1cc(OC[C@@H]2CCO2)cc2c1[C@H](c1cc(F)ccc1Cl)NC2=O)c1cc(F)cc(C(F)(F)F)c1 (single isomer, unassigned) [Compound I-1517]
2. Cc1cnccc1-c1cc(NC(=O)c2cc(F)cc(C(F)(F)F)c2)c2c(c1)C(=O)N[C@@H]2c1cc(F)ccc1Cl (stereo in doubt) [Compound I-1011]

≤ 100 nM
1000 to 10000 nM
